Source of measurements: ChEMBL document CHEMBL4742400

Property: Selectivity ratio; scope: individual compounds
organism: Homo sapiens; experiment: Selectivity index, ratio of inhibition of B-raf (unknown origin) to inhibition of partial length human MKK4 (S84 to D399 residues) expressed in mammalian expression system assessed as residual percent of control binding at 100 nM relative to control
A bare number is all that is needed in reply.

Below, each entry is followed by its recorded Selectivity ratio result.
                            molecule_smiles  recorded_result
0  CCCS(=O)(=O)Nc1ccc(F)c(C(=O)c2n[nH]c3ncc(-c4ccc(F)cc4)cc23)c1F               10
1  CCCS(=O)(=O)Nc1ccc(F)c(C(=O)c2n[nH]c3ncc(-c4ccccc4F)cc23)c1F               10
2  CCCS(=O)(=O)Nc1ccc(F)c(C(=O)c2n[nH]c3ncc(-c4ccc(C(=O)O)cc4)cc23)c1F               10
3  CCCS(=O)(=O)Nc1ccc(F)c(C(=O)c2n[nH]c3ncc(-c4ccc(N)cc4)cc23)c1F               10
4  CCCS(=O)(=O)Nc1ccc(F)c(C(=O)c2n[nH]c3ncc(-c4ccccc4O)cc23)c1F                3
5  CCCS(=O)(=O)Nc1ccc(F)c(C(=O)c2n[nH]c3ncc(-c4ccc(C(N)=O)cc4)cc23)c1F                3
6  CCCS(=O)(=O)Nc1ccc(F)c(C(=O)c2n[nH]c3ncc(-c4ccc(Cl)cc4Cl)cc23)c1F                3

[Q] Quick one: Selectivity ratio of CCCS(=O)(=O)Nc1ccc(F)c(C(=O)c2n[nH]c3ncc(-c4cccc(O)c4)cc23)c1F ?
[A] 3
